Taken from paper PMC12175168.

- protocol-text: Stability assessment of test compounds in aqueous buffers (half-lives)
- test-parameters: aqueous phosphate buffer with acetonitrile, pH 7.4
Task for the reader: assign each of the following molecules its reported half-life.
Give bare numbers, in min.

Reference set (3 entries):
- molecule: "O=C(O)c1ccc2c(c1)C(=O)OC2=O [C2, trimellitic anhydride]"
  measurement-label: "half-life"
  readout-value: 110
- molecule: "O=C1OC(=O)c2ccccc21 [C1, phthalic anhydride]"
  measurement-label: "half-life"
  readout-value: 89.5
- molecule: "O=C1OC(=O)C2C3C=CC(C3)C12 (stereo not shown) [C5, himic anhydride]"
  measurement-label: "half-life"
  readout-value: 6.79

For the next question, use this molecule.
Tell me measured half-life for O=C1OC(=O)C2CCCCC12 (stereo not shown) [D1, hexahydrophthalic anhydride] please.
4.36
